Target: UniProtKB P21397
Sequence (P21397 whole entry, species assumed): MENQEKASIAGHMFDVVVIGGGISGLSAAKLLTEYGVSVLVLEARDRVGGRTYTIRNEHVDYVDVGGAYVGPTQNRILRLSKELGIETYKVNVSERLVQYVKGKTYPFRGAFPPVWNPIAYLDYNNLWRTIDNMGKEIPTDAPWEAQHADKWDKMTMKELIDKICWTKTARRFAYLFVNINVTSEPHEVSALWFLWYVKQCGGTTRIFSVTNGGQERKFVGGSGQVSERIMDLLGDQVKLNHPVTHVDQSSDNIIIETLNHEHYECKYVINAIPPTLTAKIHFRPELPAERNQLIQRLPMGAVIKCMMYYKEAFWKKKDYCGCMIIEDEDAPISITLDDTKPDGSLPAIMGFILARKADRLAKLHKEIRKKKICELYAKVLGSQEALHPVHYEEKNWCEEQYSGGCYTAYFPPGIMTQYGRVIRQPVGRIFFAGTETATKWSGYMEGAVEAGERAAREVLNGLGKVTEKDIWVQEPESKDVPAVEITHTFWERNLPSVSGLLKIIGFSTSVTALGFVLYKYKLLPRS
Experiment: MAO-A inhibition, in vitro fluorometric method
Type: biochemical
Settings: read-out: MAO-A % inhibition
Quantity Measured: inhibition at 100 µM (%)
Answers are plain numbers, in %.

See these solved cases before continuing.
COc1ccc2sc(NC(=O)c3ccc(CN4CCN(CCN(C)C)CC4)cc3)nc2c1 :: 37.9
CC(C)N1CCN(Cc2ccc(C(=O)Nc3nc4ccccc4s3)cc2)CC1 :: 33.8

For each entry beneath this line, provide reported inhibition at 100 µM.
1. CCN1CCN(Cc2ccc(C(=O)Nc3nc4cc(OC)ccc4s3)cc2)CC1
2. C#CCN1CCN(Cc2ccc(C(=O)Nc3nc4cc(OC)ccc4s3)cc2)CC1
3. COc1ccc2sc(NC(=O)c3ccc(CN4CCN(C(C)C)CC4)cc3)nc2c1
4. CN(C)CCN1CCN(Cc2ccc(C(=O)Nc3nc4ccccc4s3)cc2)CC1
5. CN(C)CCCN1CCN(Cc2ccc(C(=O)Nc3nc4ccccc4s3)cc2)CC1

[reply]
30.6
39.9
34
41.3
40.1

For each entry beneath this line, provide reported inhibition at 100 µM.
1. COc1ccc2sc(NC(=O)c3ccc(CN4CCN(CCCN(C)C)CC4)cc3)nc2c1
2. O=C(NCCN1CCOCC1)c1ccc(Cl)cc1 [Moc., moclobemide, reference compound]

[reply]
38.8
82.1
